# Target under test: hGPR40 (Homo sapiens)
# Sequence (O14842 whole entry): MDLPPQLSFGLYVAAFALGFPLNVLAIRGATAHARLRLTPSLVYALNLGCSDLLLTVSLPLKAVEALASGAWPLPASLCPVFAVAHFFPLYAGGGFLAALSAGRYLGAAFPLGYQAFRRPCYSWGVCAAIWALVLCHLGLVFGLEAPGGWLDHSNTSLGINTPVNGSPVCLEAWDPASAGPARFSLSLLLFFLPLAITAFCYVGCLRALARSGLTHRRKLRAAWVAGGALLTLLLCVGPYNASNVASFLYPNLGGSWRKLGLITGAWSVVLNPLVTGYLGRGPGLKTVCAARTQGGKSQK
# Protocol description: Calcium Flux Primary Assay (FLIPR, Calcium 4 Dye)
# Type: cell-based
# Design: expressed in transfected cells; host or cells: HEK293
# Experimental setup: HEK293, HEK293 cells over expressing human GPR40; vs natural ligand linoleic acid; read-out: efficacy (maximal response compared to linoleic acid)
Listed here: items and their measured Emax.

INSERT INTO measurements (compound, parameter, measured) VALUES
  ('CC#C[C@@H](CC(=O)O)c1ccc(OCc2cc(-c3ccc(OCC#N)cc3C)cn3ncnc23)cc1 [Example 16]', 'Emax', '> 35%'),
  ('CC#C[C@@H](CC(=O)O)c1ccc(OCc2cc(-c3c(C)cccc3F)cn3ncnc23)cc1 [Example 3]', 'Emax', '> 35%');

Consider the record given below.
Would you mind telling me what Emax value was observed for CC#C[C@@H](CC(=O)O)c1ccc(OCc2cc(-c3cc(Cl)ccc3C)cn3ncnc23)cc1 [Example 12] ?
> 35%

All values here come from patent US9617263B2.
